system-under-test: GORASP1, Q9BQQ3
Sequence (Q9BQQ3 1-208): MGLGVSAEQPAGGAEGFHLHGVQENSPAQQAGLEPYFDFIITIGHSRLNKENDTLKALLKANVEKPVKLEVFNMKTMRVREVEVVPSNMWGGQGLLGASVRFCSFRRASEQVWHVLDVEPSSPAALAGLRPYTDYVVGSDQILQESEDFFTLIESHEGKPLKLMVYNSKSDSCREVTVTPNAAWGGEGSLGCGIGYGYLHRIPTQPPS
method: holdup assay
Set-up: key: below the threshold = too weak to quantify, mostly under pKd 3.1 to 4
condition-details: plain residues with an end cap or a label only (N-terminal biotin on a linker: ttds)
value-kind: pKd

>>> recorded_value("IYVPEAQTRL [DLGAP4, Q9Y2H0]")
"below the threshold"
>>> recorded_value("TVASEKESVM [SLC1A5, Q15758]")
"below the threshold"
>>> recorded_value("ERKLSSESQV [LRP4, O75096]")
"below the threshold"
>>> recorded_value("VLRLQSETSV [VANGL1, Q8TAA9]")
"below the threshold"
